Target: human FXR (NR1H4) (Homo sapiens, UniProt Q96RI1)
Sequence (Q96RI1 1-486): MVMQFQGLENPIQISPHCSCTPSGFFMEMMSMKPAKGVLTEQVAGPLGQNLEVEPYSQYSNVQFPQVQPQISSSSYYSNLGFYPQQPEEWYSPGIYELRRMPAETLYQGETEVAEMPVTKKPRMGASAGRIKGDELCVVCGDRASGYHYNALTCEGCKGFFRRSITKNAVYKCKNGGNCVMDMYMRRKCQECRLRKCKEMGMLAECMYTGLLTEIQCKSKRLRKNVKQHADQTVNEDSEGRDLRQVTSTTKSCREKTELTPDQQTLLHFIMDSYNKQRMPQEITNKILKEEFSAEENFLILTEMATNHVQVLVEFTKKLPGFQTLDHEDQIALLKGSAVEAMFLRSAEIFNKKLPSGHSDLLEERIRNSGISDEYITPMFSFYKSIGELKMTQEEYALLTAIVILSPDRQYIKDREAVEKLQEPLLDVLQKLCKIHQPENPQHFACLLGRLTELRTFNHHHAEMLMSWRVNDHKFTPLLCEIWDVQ
Assay: Human FXR (NR1H4) Assay (Gal4 promoter driven luciferase reporter, Indigo Bioscience kit IB00601)
Conditions: FXR agonistic potency; CHO reporter cells expressing human NR1H4; 22 hours incubation; luciferase readout
pEC50: −log10 of the molar value.
test.readout: pEC50

structure.notation	pEC50
CC[C@H]1[C@@H](O)[C@@H]2[C@H](CC[C@]3(C)[C@@H]([C@H](C)COC(=O)NS(=O)(=O)c4ccc(OC)cc4)CC[C@@H]23)[C@@]2(C)CC[C@@H](O)C[C@@H]12	8.00 to 9.00

Returns the measured pEC50 for the input compound. Input: CC[C@H]1[C@@H](O)[C@@H]2[C@H](CC[C@]3(C)[C@@H]([C@H](C)COC(=O)NS(=O)(=O)c4ccc(OC(C)(C)C)cc4)CC[C@@H]23)[C@@]2(C)CC[C@@H](O)C[C@@H]12
> 9.00

Returns the measured pEC50 for the input compound. Input: CC[C@H]1[C@@H](O)[C@@H]2[C@H](CC[C@]3(C)[C@@H]([C@H](C)COC(=O)NS(=O)(=O)c4ccc5c(c4)CC(C)(C)O5)CC[C@@H]23)[C@@]2(C)CC[C@@H](O)C[C@@H]12
> 9.00

Returns the measured pEC50 for the input compound. Input: CC[C@H]1[C@@H](O)[C@@H]2[C@H](CC[C@]3(C)[C@@H]([C@H](C)COC(=O)NS(=O)(=O)c4ccc(OC(C)C)c(C)c4)CC[C@@H]23)[C@@]2(C)CC[C@@H](O)C[C@@H]12
> 9.00

----------
Molecular target: human FXR (NR1H4) (Homo sapiens)
Sequence (Q96RI1 1-486): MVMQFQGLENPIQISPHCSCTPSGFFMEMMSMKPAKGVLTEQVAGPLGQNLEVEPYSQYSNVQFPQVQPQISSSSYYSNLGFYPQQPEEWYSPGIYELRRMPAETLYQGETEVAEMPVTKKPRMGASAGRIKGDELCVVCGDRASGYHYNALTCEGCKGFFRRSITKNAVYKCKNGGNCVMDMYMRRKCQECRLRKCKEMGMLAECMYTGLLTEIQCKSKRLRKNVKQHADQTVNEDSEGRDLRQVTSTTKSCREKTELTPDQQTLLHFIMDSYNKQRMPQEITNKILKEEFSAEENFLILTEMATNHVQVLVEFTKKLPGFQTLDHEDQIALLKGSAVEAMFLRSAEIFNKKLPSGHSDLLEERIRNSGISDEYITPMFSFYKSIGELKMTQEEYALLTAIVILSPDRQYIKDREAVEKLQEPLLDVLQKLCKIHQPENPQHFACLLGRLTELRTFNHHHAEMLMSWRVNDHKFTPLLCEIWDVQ
Test: Human FXR (NR1H4) Assay (Gal4 promoter driven luciferase reporter, Indigo Bioscience kit IB00601)
Details: FXR agonistic potency; CHO reporter cells expressing human NR1H4; 22 hours incubation; luciferase readout
pEC50: −log10 of the molar value.
Catalogue of pEC50 values

molecule	pEC50
CC(C)Oc1ccc(S(=O)(=O)NC(=O)OC[C@@H](C)[C@H]2CC[C@H]3[C@@H]4[C@H](O)C[C@@H]5C[C@H](O)CC[C@]5(C)[C@H]4CC[C@]23C)cc1 [Example 3]	< 7.00
CC[C@H]1[C@@H](O)[C@@H]2[C@H](CC[C@]3(C)[C@@H]([C@H](C)COC(=O)NS(=O)(=O)c4ccc(OC(C)(C)C)cn4)CC[C@@H]23)[C@@]2(C)CC[C@@H](O)C[C@@H]12 [Example 22]	> 9.00
CC[C@H]1[C@@H](O)[C@@H]2[C@H](CC[C@]3(C)[C@@H]([C@H](C)COC(=O)NS(=O)(=O)c4ccc(Oc5ccccc5)cc4)CC[C@@H]23)[C@@]2(C)CC[C@@H](O)C[C@@H]12 [Example 25]	< 7.00
CC[C@H]1[C@@H](O)[C@@H]2[C@H](CC[C@]3(C)[C@@H]([C@H](C)COC(=O)NS(=O)(=O)c4ccc(OC5(C)CCCCC5)cc4)CC[C@@H]23)[C@@]2(C)CC[C@@H](O)C[C@@H]12 [Example 12]	> 9.00
CC[C@H]1[C@@H](O)[C@@H]2[C@H](CC[C@]3(C)[C@@H]([C@H](C)COC(=O)NS(=O)(=O)c4ccc5c(c4)CCC(C)(C)O5)CC[C@@H]23)[C@@]2(C)CC[C@@H](O)C[C@@H]12 [Example 5]	> 9.00
CC[C@H]1[C@@H](O)[C@@H]2[C@H](CC[C@]3(C)[C@@H]([C@H](C)COC(=O)NS(=O)(=O)c4ccc(OC(C)C)cc4)CC[C@@H]23)[C@@]2(C)CC[C@@H](O)C[C@@H]12 [Example 4]	> 9.00
CC[C@H]1[C@@H](O)[C@@H]2[C@H](CC[C@]3(C)[C@@H]([C@H](C)COC(=O)NS(=O)(=O)c4ccc(OC(F)(F)F)cc4)CC[C@@H]23)[C@@]2(C)CC[C@@H](O)C[C@@H]12 [Example 23]	< 7.00
CC[C@H]1[C@@H](O)[C@@H]2[C@H](CC[C@]3(C)[C@@H]([C@H](C)COC(=O)NS(=O)(=O)c4ccc(OC5(C)CCCC5)cc4)CC[C@@H]23)[C@@]2(C)CC[C@@H](O)C[C@@H]12 [Example 10]	> 9.00

Returns the measured pEC50 for the input molecule. Input: CCCCOc1ccc(S(=O)(=O)NC(=O)OC[C@@H](C)[C@H]2CC[C@H]3[C@@H]4[C@H](O)[C@H](CC)[C@@H]5C[C@H](O)CC[C@]5(C)[C@H]4CC[C@]23C)cc1 [Example 21]
8.00 to 9.00

----------
Molecular target: human FXR (NR1H4) (Homo sapiens, UniProt Q96RI1)
Assay: Human FXR (NR1H4) Assay (Gal4 promoter driven luciferase reporter, Indigo Bioscience kit IB00601)
Details: FXR agonistic potency; CHO reporter cells expressing human NR1H4; 22 hours incubation; luciferase readout
test.readout: EC50

structure.notation	subject.of.test	test.readout	result
CC[C@H]1[C@@H](O)[C@@H]2[C@H](CC[C@]3(C)[C@@H]([C@H](C)COC(=O)NS(=O)(=O)c4ccc(O[C@H](C)CC)cc4)CC[C@@H]23)[C@@]2(C)CC[C@@H](O)C[C@@H]12	human FXR (NR1H4) (Homo sapiens, UniProt Q96RI1)	EC50	< 1 nM

Note: attention shifts to another entry.
Returns the measured EC50 for the input compound. Input: CCCOc1ccc(S(=O)(=O)NC(=O)OC[C@@H](C)[C@H]2CC[C@H]3[C@@H]4[C@H](O)[C@H](CC)[C@@H]5C[C@H](O)CC[C@]5(C)[C@H]4CC[C@]23C)cc1
< 1 nM

----------
Catalogue of EC50 values
Biological target: human FXR (NR1H4) (Homo sapiens)
Sequence (Q96RI1 1-486): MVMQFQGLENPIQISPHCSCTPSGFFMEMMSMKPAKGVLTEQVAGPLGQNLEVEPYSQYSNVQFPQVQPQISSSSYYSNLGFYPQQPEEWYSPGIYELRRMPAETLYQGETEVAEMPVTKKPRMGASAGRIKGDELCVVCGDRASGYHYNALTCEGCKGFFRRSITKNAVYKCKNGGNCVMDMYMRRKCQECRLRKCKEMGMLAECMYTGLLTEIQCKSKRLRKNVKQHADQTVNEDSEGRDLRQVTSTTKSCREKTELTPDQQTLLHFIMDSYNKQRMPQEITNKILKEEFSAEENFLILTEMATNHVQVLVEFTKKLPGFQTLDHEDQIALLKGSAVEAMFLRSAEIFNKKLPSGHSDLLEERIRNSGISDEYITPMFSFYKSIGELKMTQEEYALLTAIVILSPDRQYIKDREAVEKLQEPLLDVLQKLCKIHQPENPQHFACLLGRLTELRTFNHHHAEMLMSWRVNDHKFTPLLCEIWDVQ
Test: Human FXR (NR1H4) Assay (Gal4 promoter driven luciferase reporter, Indigo Bioscience kit IB00601)
Conditions: FXR agonistic potency; CHO reporter cells expressing human NR1H4; 22 hours incubation; luciferase readout
Text: Determination of a ligand mediated Gal4 promoter driven transactivation to quantify ligand binding mediated activation of FXR. […] The principle application of this reporter assay system is to quantify functional activity of human FXR. […] Luminescence intensity of the reaction is quantified using a plate-reading luminometer, Envision. […] Thus, quantifying changes in luciferase expression in the treated reporter cells provides a sensitive surrogate measure of the changes in FXR activity. […]

Consider the worked cases shown below.
structure.notation	result
CC[C@H]1[C@@H](O)[C@@H]2[C@H](CC[C@]3(C)[C@@H]([C@H](C)COC(=O)NS(=O)(=O)c4ccc(OC5CC5)cc4)CC[C@@H]23)[C@@]2(C)CC[C@@H](O)C[C@@H]12	< 1 nM
CC[C@H]1[C@@H](O)[C@@H]2[C@H](CC[C@]3(C)[C@@H]([C@H](C)COC(=O)NS(=O)(=O)c4ccc(OC5CCC5)cc4)CC[C@@H]23)[C@@]2(C)CC[C@@H](O)C[C@@H]12	< 1 nM
CC[C@H]1[C@@H](O)[C@@H]2[C@H](CC[C@]3(C)[C@@H]([C@H](C)COC(=O)NS(=O)(=O)c4ccc(O[C@@H](C)CC)cc4)CC[C@@H]23)[C@@]2(C)CC[C@@H](O)C[C@@H]12	< 1 nM
CC[C@H]1[C@@H](O)[C@@H]2[C@H](CC[C@]3(C)[C@@H]([C@H](C)COC(=O)NS(=O)(=O)c4cnc(OC(C)C)nc4)CC[C@@H]23)[C@@]2(C)CC[C@@H](O)C[C@@H]12	10 to 100 nM
CC[C@H]1[C@@H](O)[C@@H]2[C@H](CC[C@]3(C)[C@@H]([C@H](C)COC(=O)NS(=O)(=O)c4ccc(OC5(C)CC5)cc4)CC[C@@H]23)[C@@]2(C)CC[C@@H](O)C[C@@H]12	< 1 nM
C[C@H](COC(=O)NS(=O)(=O)c1ccc(OC(C)(C)C)cc1)[C@H]1CC[C@H]2[C@@H]3[C@H](O)C[C@@H]4C[C@H](O)CC[C@]4(C)[C@H]3CC[C@]12C	10 to 100 nM
CC[C@H]1[C@@H](O)[C@@H]2[C@H](C[C@H](O)[C@]3(C)[C@@H]([C@H](C)COC(=O)NS(=O)(=O)c4ccc5c(c4)CCC(C)(C)O5)CC[C@@H]23)[C@@]2(C)CC[C@@H](O)C[C@@H]12	> 100 nM
CCOc1ccc(S(=O)(=O)NC(=O)OC[C@@H](C)[C@H]2CC[C@H]3[C@@H]4[C@H](O)[C@H](CC)[C@@H]5C[C@H](O)CC[C@]5(C)[C@H]4CC[C@]23C)cc1	< 1 nM

Returns the measured EC50 for the input compound. Input: CCC(CC)Oc1ccc(S(=O)(=O)NC(=O)OC[C@@H](C)[C@H]2CC[C@H]3[C@@H]4[C@H](O)[C@H](CC)[C@@H]5C[C@H](O)CC[C@]5(C)[C@H]4CC[C@]23C)cc1
10 to 100 nM
